Data provenance: ChEMBL document CHEMBL1201862

Consider the following compounds; for each one, report its IC50.
- target.under.test: Prothrombin (Homo sapiens)
- experiment: Thrombin 1536 HTS Dose Response Confirmation. [Related pubchem assays: 1046 (Thrombin 1536 HTS; hits were confirmed in this assay)]
- Assay type: functional
Activity calls are given as the source filed them.

INSERT INTO results (compound, result) VALUES
  ('O=C(Nc1cc2c3c(c1)C1CCCC1CN3CC1CCCC21)c1ccc([N+](=O)[O-])cc1 (stereo not given)', '> 50 µM (not active)'),
  ('CCc1cccc(CC)c1NC(=O)c1cccc(N)c1', '> 50 µM (not active)'),
  ('Cc1cccc(NC(=S)NC23CN4CN(CN(C4)C2)C3)c1', '> 50 µM (not active)');

Record IC50 for all entries; do not skip any.
1. CSc1nc(-c2ccccc2)nn1C(=O)c1ccc(Cl)cc1
2. CC(C)c1ccc(NC(=O)COc2ccccn2)cc1

Outgoing:
1: 0.725 µM (active); 2: > 50 µM (not active)

###

Consider the following molecules; for each one, report its EC50.
- System: Streptococcus sp. 'group A'
- experiment: growth inhibition of control SK(-) GAS strain, dose response, counter-screen for streptokinase expression inhibitor project, luminescence, kanamycin, BacTiterGlo, confirmation (AID 1900)
- Format: functional, organism-based
Active and inactive are the calls of the source.

Sample records with EC50:
INSERT INTO assay_data (molecule, target_under_test, result) VALUES
  ('Nc1ccc(-c2nc3nc(N)nc(N)c3nc2-c2ccc(N)cc2)cc1', 'Streptococcus sp. ''group A''', '2.94 µM (active)'),
  ('Nc1sc(-c2ccccc2)cc1C(=O)N/N=C/c1ccc(Cl)cc1', 'Streptococcus sp. ''group A''', '3.46 µM (active)');

Record EC50 for all entries; do not skip any.
1. Cc1ccc(C(=O)NC(=S)NNC(=O)COc2ccccc2C)cc1
2. O=C(NCc1ccccc1)C(=O)Nc1nc(-c2ccccc2)cs1
3. CCOc1cccc(/C=N/NC(=O)c2ccc3c(c2)OCCO3)c1O
4. Cc1ccc(N=C(S)Nc2ccc(C(C)C)cc2)cc1S(=O)(=O)N1CCCCCC1
5. N#C/C(=C/c1ccc(N2CCCCCC2)o1)c1ccc(F)cc1
6. CCn1ccnc1CN1CCc2c([nH]c3ccccc23)C1C1CCCCC1 (stereo not drawn)

Outgoing:
["0.138 µM (active)", "5.38 µM (active)", "1.49 µM (active)", "13.2 µM (active)", "19.2 µM (active)", "5.53 µM (active)"]

###

Consider the following compounds; for each one, report its EC50.
- Test system: BJ
- experiment: cytotoxicity toward BJ-TERT fibroblasts, dose response, cell-based, RAS-independent, luminescence (AID 1933)
- Assay type: functional
- condition: Homo sapiens
Calls of active or inactive are those of the source.

INSERT INTO measurements (smiles_str, target_under_test, value_kind, result) VALUES
  ('CCOc1cc(CNc2ccc3c(c2)OCCO3)cc(Br)c1OCC', 'BJ', 'EC50', '1850 nM (active)'),
  ('Cc1ccc(/C=N/NC(=O)COc2ccccc2-c2ccccc2)cc1', 'BJ', 'EC50', '643 nM (inconclusive)'),
  ('COc1ccc(-c2cc(C(=O)OCC(=O)c3cccc([N+](=O)[O-])c3)c3cc(C)ccc3n2)cc1', 'BJ', 'EC50', '> 150000 nM (not active)');

Let us examine a further case.
Incoming: What value of EC50 has been reported for the following compound? CC(=O)n1cc(N(C(=O)CCl)c2ccc(C)cc2)c2ccccc21
Outgoing: 812 nM (inconclusive)
